# subject-of-test: T1, CAPRIN-1 protein expressed on the membrane surface of human cancer cells (human, UniProt Q14444 2-709)
# T1 sequence (looked up): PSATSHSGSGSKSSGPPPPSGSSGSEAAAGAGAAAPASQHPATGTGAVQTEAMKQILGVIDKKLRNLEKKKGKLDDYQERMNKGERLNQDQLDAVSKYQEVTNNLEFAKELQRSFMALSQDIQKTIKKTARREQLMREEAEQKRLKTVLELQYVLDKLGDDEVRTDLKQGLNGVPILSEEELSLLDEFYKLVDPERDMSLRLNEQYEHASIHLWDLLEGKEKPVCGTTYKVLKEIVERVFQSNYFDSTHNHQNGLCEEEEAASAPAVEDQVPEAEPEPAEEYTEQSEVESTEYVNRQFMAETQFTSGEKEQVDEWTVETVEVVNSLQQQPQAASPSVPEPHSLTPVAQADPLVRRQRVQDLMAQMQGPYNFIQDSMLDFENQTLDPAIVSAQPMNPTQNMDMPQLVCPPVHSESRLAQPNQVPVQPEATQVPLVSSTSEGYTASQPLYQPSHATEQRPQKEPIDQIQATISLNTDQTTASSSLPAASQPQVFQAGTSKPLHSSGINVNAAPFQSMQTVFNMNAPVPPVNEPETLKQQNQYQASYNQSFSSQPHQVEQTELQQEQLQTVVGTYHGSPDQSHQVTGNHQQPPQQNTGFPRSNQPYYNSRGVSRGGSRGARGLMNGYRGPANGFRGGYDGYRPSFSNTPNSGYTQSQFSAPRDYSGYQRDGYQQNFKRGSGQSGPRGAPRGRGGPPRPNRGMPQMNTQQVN
# assay-summary: cell-based or functional assay
measured-endpoint: ADCC cytotoxic activity (51Cr release) on HT-1080

Take a look at these entries with their results.
[
  {
    "binder": "humanized antibody #9 (antibody, V domains shown) VH: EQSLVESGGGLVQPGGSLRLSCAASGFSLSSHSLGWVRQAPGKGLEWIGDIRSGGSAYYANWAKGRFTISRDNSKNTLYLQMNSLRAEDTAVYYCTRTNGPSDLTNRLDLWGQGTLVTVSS VL: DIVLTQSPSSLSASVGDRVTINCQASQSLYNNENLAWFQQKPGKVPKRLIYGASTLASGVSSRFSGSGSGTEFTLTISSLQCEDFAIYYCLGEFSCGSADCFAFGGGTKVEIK",
    "endpoint-value": "≥ 20%"
  },
  {
    "binder": "humanized antibody #6 (antibody, V domains shown) VH: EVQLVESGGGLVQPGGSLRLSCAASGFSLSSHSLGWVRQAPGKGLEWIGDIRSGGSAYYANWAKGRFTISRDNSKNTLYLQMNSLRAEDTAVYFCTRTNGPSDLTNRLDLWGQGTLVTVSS VL: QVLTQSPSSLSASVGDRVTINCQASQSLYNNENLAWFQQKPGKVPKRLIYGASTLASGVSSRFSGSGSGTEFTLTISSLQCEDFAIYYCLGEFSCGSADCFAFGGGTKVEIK",
    "endpoint-value": "≥ 30%"
  },
  {
    "binder": "humanized antibody #8 (antibody, V domains shown) VH: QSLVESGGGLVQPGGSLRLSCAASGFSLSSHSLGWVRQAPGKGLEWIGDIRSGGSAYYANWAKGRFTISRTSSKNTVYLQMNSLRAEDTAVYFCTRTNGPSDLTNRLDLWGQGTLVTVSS VL: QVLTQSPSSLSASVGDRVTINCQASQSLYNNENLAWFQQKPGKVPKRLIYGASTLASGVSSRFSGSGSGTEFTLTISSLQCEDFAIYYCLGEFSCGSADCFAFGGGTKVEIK",
    "endpoint-value": "≥ 20%"
  }
]

IN: Returns the measured ADCC cytotoxic activity (51Cr release) on HT-1080 for the input binder. Input: humanized antibody #7 (antibody, V domains shown) VH: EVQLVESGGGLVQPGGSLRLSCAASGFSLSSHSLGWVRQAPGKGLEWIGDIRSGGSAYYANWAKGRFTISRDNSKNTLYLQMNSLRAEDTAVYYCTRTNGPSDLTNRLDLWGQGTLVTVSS VL: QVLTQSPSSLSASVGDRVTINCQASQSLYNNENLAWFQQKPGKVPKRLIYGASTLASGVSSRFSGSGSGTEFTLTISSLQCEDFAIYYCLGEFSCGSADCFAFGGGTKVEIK
OUT: ≥ 30%

Entry source: patent US20160297889A1
